ka listing for selected molecules.
testTarget: hT40 (Homo sapiens, UniProt P10636)
Sequence (P10636 1-441 isoform P10636-8): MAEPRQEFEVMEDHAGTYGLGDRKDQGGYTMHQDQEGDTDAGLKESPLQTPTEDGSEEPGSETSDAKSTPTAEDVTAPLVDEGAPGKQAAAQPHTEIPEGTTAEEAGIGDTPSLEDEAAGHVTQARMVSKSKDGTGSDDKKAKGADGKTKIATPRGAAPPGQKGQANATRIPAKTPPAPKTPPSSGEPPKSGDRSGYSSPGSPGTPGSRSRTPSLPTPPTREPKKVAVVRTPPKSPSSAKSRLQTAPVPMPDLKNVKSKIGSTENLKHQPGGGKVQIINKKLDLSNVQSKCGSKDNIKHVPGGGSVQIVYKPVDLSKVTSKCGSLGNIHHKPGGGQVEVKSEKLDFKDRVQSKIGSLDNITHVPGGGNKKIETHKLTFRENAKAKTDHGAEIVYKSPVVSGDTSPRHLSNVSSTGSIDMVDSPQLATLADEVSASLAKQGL
assayRemarks: Biacore X100 SPR, scAb captured via anti-HuCk, hT40 as analyte
Assay type: binding
measurementSetup: scAb, Table 23, T441 (hT40)
quantityKind: ka (M⁻¹ s⁻¹)

molecule	numericReadout
CC7: anti-tau clone, SEQ ID NO: 365 (protein, CC7 amino acid sequence) scFv: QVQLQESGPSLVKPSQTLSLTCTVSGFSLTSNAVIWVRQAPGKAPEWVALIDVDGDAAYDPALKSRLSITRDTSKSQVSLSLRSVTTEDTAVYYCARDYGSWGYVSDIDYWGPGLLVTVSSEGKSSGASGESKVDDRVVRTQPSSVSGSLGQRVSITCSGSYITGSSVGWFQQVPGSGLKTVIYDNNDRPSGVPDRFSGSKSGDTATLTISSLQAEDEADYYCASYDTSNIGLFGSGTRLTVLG	295700
S1G2: anti-tau clone, SEQ ID NO: 81 (protein, S1G2 amino acid sequence) scFv: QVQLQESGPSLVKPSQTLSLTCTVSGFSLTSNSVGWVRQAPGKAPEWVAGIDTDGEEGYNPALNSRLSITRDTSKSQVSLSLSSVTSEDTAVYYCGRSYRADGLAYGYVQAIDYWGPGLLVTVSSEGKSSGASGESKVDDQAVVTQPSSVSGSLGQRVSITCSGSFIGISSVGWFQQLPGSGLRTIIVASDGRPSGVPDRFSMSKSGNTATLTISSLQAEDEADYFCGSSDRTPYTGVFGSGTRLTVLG	1.057e+06
